Overview of reported shrunken log2 fold change across a group of sequences:
System: Escherichia coli TOP10
Assay: shrunken log2 fold change of peptide-encoding DNA abundance (4.5 h post-induction vs induction); higher = less antimicrobial activity (less host growth inhibition)
Conditions: time post-induction: 4.5 h; library: site-saturation at positions 5, 18, 19, 20
Response field accepts a number only; no unit should be typed.

Exercise: Please give the measured shrunken log2 fold change for this sequence: `RRIRTRPPRLPRPRPRPSNEPRP`
Key: -0.34

Exercise: Please give the measured shrunken log2 fold change for this sequence: `RRIRMRPPRLPRPRPRPVAGPRP`
Key: 1.31

Exercise: Please give the measured shrunken log2 fold change for this sequence: `RRIRWRPPRLPRPRPRPMKWPRP`
Key: 0.0452

Exercise: Please give the measured shrunken log2 fold change for this sequence: `RRIRDRPPRLPRPRPRPFYEPRP`
Key: -0.262

Exercise: Please give the measured shrunken log2 fold change for this sequence: `RRIRIRPPRLPRPRPRPEPTPRP`
Key: 0.659

Exercise: Please give the measured shrunken log2 fold change for this sequence: `RRIRTRPPRLPRPRPRPYRMPRP`
Key: -0.128

Exercise: Please give the measured shrunken log2 fold change for this sequence: `RRIRARPPRLPRPRPRPWKNPRP`
Key: -0.145

Exercise: Please give the measured shrunken log2 fold change for this sequence: `RRIRTRPPRLPRPRPRPYHCPRP`
Key: 0.0119

Exercise: Please give the measured shrunken log2 fold change for this sequence: `RRIRGRPPRLPRPRPRPDKAPRP`
Key: -0.00124

Exercise: Please give the measured shrunken log2 fold change for this sequence: `RRIRWRPPRLPRPRPRPSEVPRP`
Key: -0.0251

Exercise: Please give the measured shrunken log2 fold change for this sequence: `RRIRPRPPRLPRPRPRPMGPPRP`
Key: -0.248

Exercise: Please give the measured shrunken log2 fold change for this sequence: `RRIRHRPPRLPRPRPRPVELPRP`
Key: 0.115

* * *

Test system: Escherichia coli TOP10;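 further: peptides expressed intracellularly from a pBAD plasmid library in pooled LB shake-flask culture, induced with 0.3% L-arabinose, DNA abundance read by NGS, three biological replicates, DESeq2 with apeglm shrinkage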
Assay: shrunken log2 fold change of peptide-encoding DNA abundance (4.5 h post-induction vs induction); higher = less antimicrobial activity (less host growth inhibition)
Conditions: time post-induction: 4.5 h; library: site-saturation at positions 5, 18, 19, 20
shrunken log2 fold change of 0.2 or higher: yes (1). Under 0.2: no (0).

Please review the entries below; each comes with its answer.
sequence_chain: RRIRRRPPRLPRPRPRPNPPPRP
assigned_class: yes (1)
--
sequence_chain: RRIRYRPPRLPRPRPRPANVPRP
assigned_class: no (0)
--
sequence_chain: RRIRRRPPRLPRPRPRPTWLPRP
assigned_class: yes (1)
--
sequence_chain: RRIRLRPPRLPRPRPRPDCDPRP
assigned_class: no (0)

Exercise: Hi team, for `RRIRMRPPRLPRPRPRPHTKPRP` , is the recorded shrunken log2 fold change at or above 0.2?
Key: no (0)

Exercise: Hi team, for `RRIRWRPPRLPRPRPRPAQNPRP` , is the recorded shrunken log2 fold change at or above 0.2?
Key: yes (1)

Exercise: Hi team, for `RRIRSRPPRLPRPRPRPMLIPRP` , is the recorded shrunken log2 fold change at or above 0.2?
Key: no (0)

Exercise: Hi team, for `RRIRIRPPRLPRPRPRPHKGPRP` , is the recorded shrunken log2 fold change at or above 0.2?
Key: no (0)
